Reported TGI is given for each of the following compounds.
# Tested on: MOLT-4 leukemia
# Assay Procedure: NCI tumour cell line growth inhibition, 48 h

{"Compound": "N#CNC(=NCCc1c[nH]c2ccccc12)Oc1ccccc1", "Target System": "MOLT-4 leukemia", "TGI": "> 100 µM"}
{"Compound": "O=C(O)C1CCCCN1c1ccccc1[N+](=O)[O-] (stereo not given)", "Target System": "MOLT-4 leukemia", "TGI": "> 100 µM"}
{"Compound": "Cc1cnc2[nH]c(-c3ccc4ccccc4c3)cc(=O)c2c1", "Target System": "MOLT-4 leukemia", "TGI": "> 100 µM"}
{"Compound": "CC(=O)[O][Sn]([CH2]c1ccccc1)([CH2]c1ccccc1)[CH2]c1ccccc1", "Target System": "MOLT-4 leukemia", "TGI": "> 10 µM"}
{"Compound": "Cc1ccc(Nc2nc3c(=O)n(C)c(=O)n(C)c3nc2Nc2ccc(C)cc2)cc1", "Target System": "MOLT-4 leukemia", "TGI": "> 100 µM"}
{"Compound": "COc1ccc(C(=O)/C=C/c2cccc(Nc3ccnc4cc(Cl)ccc34)c2)cc1", "Target System": "MOLT-4 leukemia", "TGI": "> 100 µM"}
{"Compound": "Cc1cnc2sn(-c3ccc(Br)cc3)c(=O)c2c1", "Target System": "MOLT-4 leukemia", "TGI": "> 100 µM"}
{"Compound": "COc1ccc(CC2(Cc3ccc(OC)cc3)CCOC2=O)cc1", "Target System": "MOLT-4 leukemia", "TGI": "> 100 µM"}
{"Compound": "NS(=O)(=O)c1ccc(/C=C/c2ccc(O)cc2)cc1", "Target System": "MOLT-4 leukemia", "TGI": "> 100 µM"}
{"Compound": "ClCCCCCc1c2nc(c(CCCCCCl)c3ccc([nH]3)c(CCCCCCl)c3ccc([nH]3)c(CCCCCCl)c3nc1C=C3)C=C2", "Target System": "MOLT-4 leukemia", "TGI": "> 100 µM"}
{"Compound": "O=CN1CCN(C(=O)c2ccc(Cl)c(Cl)c2)C1=S", "Target System": "MOLT-4 leukemia", "TGI": "53.8 µM"}
{"Compound": "C#CCNCCN1C(=O)c2ccc3c4c(ccc(c24)C1=O)C(=O)N(CCNCC#C)C3=O", "Target System": "MOLT-4 leukemia", "TGI": "16.7 µM"}
{"Compound": "CNc1ccc(C(=O)CC(O)CCC(C)C2OC(=O)CC(O)CC(=O)CC(O)CC(O)CC(O)CC(O)CC3(O)CC(O)C(C(=O)NCCN4CCOCC4)C(CC(OC4OC(C)C(O)C(N)C4O)/C=C/C=C/C=C/C=C\\C=C/C=C/C=C/C2C)O3)cc1 (stereo not given)", "Target System": "MOLT-4 leukemia", "TGI": "> 100 µM"}
{"Compound": "C=C1CC[C@@H]2[C@](C)(COC(C)=O)[C@H](OC(C)=O)CC[C@@]2(C)[C@@H]1CC(Nc1ccc(S(=O)(=O)Nc2ccc(Cl)nn2)cc1)C1=CCOC1=O (stereo not given in full)", "Target System": "MOLT-4 leukemia", "TGI": "> 100 µM"}
{"Compound": "O=c1cc(-c2cccnc2)[nH]c2cc3c(cc12)OCO3", "Target System": "MOLT-4 leukemia", "TGI": "> 100 µM"}
{"Compound": "CCOc1ccc(N/C(=C(/C(Cl)=C(/Cl)NC(C)(C)C)[N+](=O)[O-])n2nnc3ccccc32)cc1", "Target System": "MOLT-4 leukemia", "TGI": "> 100 µM"}
{"Compound": "NCCN.O=C([O-])CN1CCOCC1.[OH-].[Pt+4]", "Target System": "MOLT-4 leukemia", "TGI": "> 100 µM"}
{"Compound": "CC(C)CCNCC(O)Cn1c2ccccc2c2ccccc21 (stereo not given)", "Target System": "MOLT-4 leukemia", "TGI": "25.9 µM"}
{"Compound": "O=C(O)c1nc(-c2ccc(Cl)c(Cl)c2)nc2ccc(Cl)cc12", "Target System": "MOLT-4 leukemia", "TGI": "> 100 µM"}
{"Compound": "CNC1(C(=O)O)CC1", "Target System": "MOLT-4 leukemia", "TGI": "> 100 µM"}
